tested on: barnyardgrass (Echinochloa crus-galli); assay: Test D flooded paddy test plant response; assay type: in vivo; conditions: Flood (flooded paddy test), 31 g ai/ha; visual rating on scale 0 to 100 (0 no effect, 100 complete control), 13 to 15 days
// values below are reported Plant response rating, Barnyardgrass
Just the number, please, no unit after it.

{"Structure Notation": "FC(F)(F)Oc1cccc(-c2ccccc2Oc2ncc(Cl)cn2)c1", "Readout Kind": "Plant response rating, Barnyardgrass", "Assay Result": 0}
{"Structure Notation": "CC(F)(F)c1cc(-c2ccccc2Oc2ncc(Cl)cn2)on1", "Readout Kind": "Plant response rating, Barnyardgrass", "Assay Result": 0}
{"Structure Notation": "Fc1cccc(Oc2ncc(Cl)cn2)c1-c1cc(C(F)F)no1", "Readout Kind": "Plant response rating, Barnyardgrass", "Assay Result": 0}

Below: the item to evaluate.
Find Plant response rating, Barnyardgrass (barnyardgrass (Echinochloa crus-galli)) for the entry `Clc1ccc(-c2ccccc2Oc2ncc(Cl)cn2)nc1`
0
